Record set: pIC50 | UniProtKB P08908 | literature, multiple sources.
pIC50: −log10 of the molar value.

>  <compound>
COc1ccc2[nH]cc(CCNC(=O)c3cc(=O)cco3)c2c1

>  <pIC50>
6.22

$$$$
>  <compound>
CCCNCC1CCc2ccc(NS(C)(=O)=O)cc2O1 (centres unmarked)

>  <pIC50>
6.66

$$$$
>  <compound>
COc1cc(OC)c2c(c1CO)C[C@H]1c3cc4c(cc3CCN1C2)OCO4

>  <pIC50>
6.12

$$$$
